Tested on: Human Immunodeficiency Virus type 1 (HIV) strain #237228 in MT2 cells
Procedure Details: Anti-HIV-1 antiviral activity in acutely infected MT2 cells (CPE and RT activity)
Format: cell-based
Run Conditions: Human immunodeficiency virus 1, 144 h, acute HIV-1 infection, day 6, concentration at which virus replication is inhibited (CPE negative or ±, >95% inhibition of RT activity)
Documented IC100 across a set of compounds
// return numeric value only (unit: µM, not printed)

# annotated cases, reported IC100 shown
{"columns": ["Compound", "IC100, µM"],
 "data": [
  ["CC(C)N(C[C@H](O)[C@H](Cc1ccccc1)NC(=O)[C@H](CC(N)=O)NC(=O)c1ccc2ccccc2n1)NC(=O)NC(C)(C)C", 1],
  ["CC(C)N(C[C@H](O)[C@H](Cc1ccccc1)NC(=O)[C@H](CC(N)=O)NC(=O)c1ccccn1)NC(=O)OC(C)(C)C", 1],
  ["CC(C)N(C[C@H](O)[C@H](Cc1ccccc1)NC(=O)[C@H](CC(N)=O)NC(=O)c1ccc2ccccc2n1)NC(=O)OC(C)(C)C", 0.1],
  ["CC(C)(C)OC(=O)N1CC2CCCCC2CN1C[C@H](O)[C@H](Cc1ccccc1)NC(=O)[C@H](CC(N)=O)NC(=O)c1ccc2ccccc2n1 (some centres unmarked)", 0.1],
  ["CC(C)N(C[C@@H](O)[C@H](Cc1ccccc1)NC(=O)[C@H](CC(N)=O)NC(=O)c1ccc2ccccc2n1)NC(=O)OC(C)(C)C", 1]
]}

Tell me the measured IC100 of `CC(C)N(C[C@H](O)[C@H](Cc1ccccc1)NC(=O)[C@H](CC(N)=O)NC(=O)c1ccccc1)NC(=O)OC(C)(C)C` , please. 1

Continue with CC(C)[C@H](NC(=O)OCc1ccccn1)C(=O)N[C@@H](Cc1ccccc1)C(O)CN1C2CCC(C2)N1C(=O)OC(C)(C)C (some centres unmarked) 25

Continue with CC(C)[C@H](NC(=O)c1ccc2ccccc2n1)C(=O)N[C@@H](Cc1ccccc1)C(O)CN1CC2CCCCC2CN1C(=O)OC(C)(C)C (some centres unmarked) 1

----------
Documented antiviral index (Al), PBL cells across a set of molecules
Tested on: Human Immunodeficiency Virus type 1 (HIV) strain #237228 in human peripheral blood lymphocytes (PBLs)
Procedure Details: Anti-HIV-1 antiviral activity in acutely infected peripheral blood lymphocytes (CPE and RT activity)
Assay type: cell-based, Human Immunodeficiency Virus type 1 (HIV); human cells
Run Conditions: only non-toxic concentrations used, 8640 min

# annotated cases, reported antiviral index (Al), PBL cells shown
{"columns": ["Molecule", "Measurement Label", "Reported Value"],
 "data": [
  ["CC(C)N(C[C@H](O)[C@H](Cc1ccccc1)NC(=O)[C@H](CC(N)=O)NC(=O)c1ccccc1)NC(=O)OC(C)(C)C", "antiviral index (Al), PBL cells", "> 150"],
  ["CC(C)(C)OC(=O)N1CC2CCCCC2CN1CC(O)[C@H](Cc1ccccc1)NC(=O)[C@H](CCC(N)=O)NC(=O)c1ccc2ccccc2n1 (stereo partly drawn)", "antiviral index (Al), PBL cells", 10],
  ["CC(C)N(C[C@@H](O)[C@H](Cc1ccccc1)NC(=O)[C@H](CC(N)=O)NC(=O)c1ccc2ccccc2n1)NC(=O)OC(C)(C)C", "antiviral index (Al), PBL cells", 25],
  ["CC(C)N(C[C@H](O)[C@H](Cc1ccccc1)NC(=O)[C@H](CC(N)=O)NC(=O)c1ccccn1)NC(=O)OC(C)(C)C", "antiviral index (Al), PBL cells", 200],
  ["C[C@@H](O)[C@H](NC(=O)c1ccc2ccccc2n1)C(=O)N[C@@H](Cc1ccccc1)C(O)CN1CC2CCCCC2CN1C(=O)OC(C)(C)C (stereo partly drawn)", "antiviral index (Al), PBL cells", "< 10"],
  ["CC(C)(C)OC(=O)N1CCCCN1C[C@H](O)[C@H](Cc1ccccc1)NC(=O)[C@H](CC(N)=O)NC(=O)c1ccc2ccccc2n1", "antiviral index (Al), PBL cells", 200]
]}

Tell me the measured antiviral index (Al), PBL cells of `CC(C)(C)OC(=O)NN(C[C@H](O)[C@H](Cc1ccccc1)NC(=O)[C@H](CC(N)=O)NC(=O)c1ccc2ccccc2n1)C1CCCCC1` , please. 200

Continue with `CC(C)N(C[C@@H](O)[C@H](Cc1ccccc1)NC(=O)[C@H](CC(N)=O)NC(=O)c1ccc2ccccc2n1)NC(=O)c1ccccc1NC(=O)OCc1ccccn1` > 100

Continue with CC(C)(C)OC(=O)N1CC2CCCCC2CN1C[C@H](O)[C@H](Cc1ccccc1)NC(=O)[C@H](CC#N)NC(=O)c1ccc2ccccc2n1 (stereo partly drawn) 10

Continue with `CC(C)N(C[C@H](O)[C@H](Cc1ccccc1)NC(=O)[C@H](CC(N)=O)NC(=O)c1ccc2ccccc2n1)NC(=O)OC(C)(C)C` > 200

Continue with `CC(C)(C)OC(=O)NN(Cc1ccccc1)C[C@H](O)[C@H](Cc1ccccc1)NC(=O)[C@H](CC(N)=O)NC(=O)c1ccc2ccccc2n1` 1

Continue with CC(C)(C)OC(=O)N1CC2CCCCC2CN1CC(O)[C@H](Cc1ccccc1)NC(=O)[C@H](CC(N)=O)NC(=O)c1ccc2ccccc2n1 (stereo partly drawn) 100

----------
Documented pIC50 across a set of compounds
Study System: HIV-1 protease (Human immunodeficiency virus type 1 group M subtype B, UniProt P04585)
Procedure Details: HIV-1 protease-inhibiting activity
Format: biochemical
Run Conditions: half-maximal inhibition of HIV-1 protease
Lab note: report pIC50 as minus log10 of the concentration in molar units, number only.

# annotated cases, reported pIC50 shown
{"columns": ["Compound", "pIC50"],
 "data": [
  ["CC(C)[C@H](NC(=O)OCc1ccccn1)C(=O)N[C@@H](Cc1ccccc1)C(O)CN1C2CCC(C2)N1C(=O)OC(C)(C)C (stereo partly drawn)", 5.48],
  ["CC(C)N(C[C@@H](O)[C@H](Cc1ccccc1)NC(=O)[C@H](CC(N)=O)NC(=O)c1ccc2ccccc2n1)NC(=O)OC(C)(C)C", 8.14]
]}

As a next step, examine the compound that follows.
Hello, I am looking for reported pIC50 with HIV-1 protease (Human immunodeficiency virus type 1 group M subtype B, UniProt P04585) for CC(C)(C)OC(=O)N1Cc2ccccc2CN1CC(O)[C@H](Cc1ccccc1)NC(=O)[C@H](CC(N)=O)NC(=O)c1ccc2ccccc2n1 (stereo partly drawn) . Could you help? 7.90

----------
Documented antiviral index (Al), PBL cells across a set of compounds
System: Human Immunodeficiency Virus type 1 (HIV) strain #237228 in human peripheral blood lymphocytes (PBLs)
Procedure Details: Anti-HIV-1 antiviral activity in acutely infected peripheral blood lymphocytes (CPE and RT activity)
Type: cell-based, Human Immunodeficiency Virus type 1 (HIV); human cells
Run Conditions: only non-toxic concentrations used, 8640 min
Output spec: single numeric token, no unit.

# annotated cases, reported antiviral index (Al), PBL cells shown
{"columns": ["Compound", "Measurement Label", "Reported Value"],
 "data": [
  ["CC(C)(C)OC(=O)N1CC2CCCCC2CN1C[C@H](O)[C@H](Cc1ccccc1)NC(=O)[C@H](CC(N)=O)NC(=O)c1ccc2ccccc2n1 (single isomer, unassigned) [Compound 2b.A]", "antiviral index (Al), PBL cells", 1000],
  ["CC(C)(C)OC(=O)N1CC2CCCCC2CN1C[C@H](O)[C@H](Cc1ccccc1)NC(=O)[C@H](CC(N)=O)NC(=O)c1ccc2ccccc2n1 (stereo partly drawn) [Compound 2b]", "antiviral index (Al), PBL cells", 100]
]}

As a next step, examine the compound that follows.
Tell me the measured antiviral index (Al), PBL cells of CC(C)[C@H](NC(=O)c1ccc2ccccc2n1)C(=O)N[C@@H](Cc1ccccc1)C(O)CN1CC2CCCCC2CN1C(=O)OC(C)(C)C (stereo partly drawn) [Compound 3] , please. 5

----------
Test system: Human Immunodeficiency Virus type 1 (HIV) strain #237228 in MT2 cells
Procedure Details: Anti-HIV-1 antiviral activity in acutely infected MT2 cells (CPE and RT activity)
Format: cell-based
Run Conditions: Human immunodeficiency virus 1, 144 h, acute HIV-1 infection, day 6, concentration at which virus replication is inhibited (CPE negative or ±, >95% inhibition of RT activity)
Documented IC100 across a set of molecules
// return numeric value only (unit: µM, not printed)

# annotated cases, reported IC100 shown
{"columns": ["Molecule", "IC100, µM"],
 "data": [
  ["CC(C)(C)OC(=O)N1CC2CCCCC2CN1C[C@H](O)[C@H](Cc1ccccc1)NC(=O)[C@H](CC#N)NC(=O)c1ccc2ccccc2n1 (stereo partly drawn)", 1],
  ["CC(C)(C)OC(=O)N1CC2CCCCC2CN1CC(O)[C@H](Cc1ccccc1)NC(=O)[C@H](CC(N)=O)NC(=O)c1ccc2ccccc2n1 (stereo partly drawn)", 0.1],
  ["CC(C)(C)OC(=O)NN(Cc1ccccc1)C[C@H](O)[C@H](Cc1ccccc1)NC(=O)[C@H](CC(N)=O)NC(=O)c1ccc2ccccc2n1", 1]
]}

Hello, I am looking for reported IC100 with Human Immunodeficiency Virus type 1 (HIV) strain #237228 in MT2 cells for C[C@@H](O)[C@H](NC(=O)c1ccc2ccccc2n1)C(=O)N[C@@H](Cc1ccccc1)C(O)CN1CC2CCCCC2CN1C(=O)OC(C)(C)C (stereo partly drawn) . Could you help? 1

Continue with `CC(C)(C)OC(=O)N1CCCCN1C[C@H](O)[C@H](Cc1ccccc1)NC(=O)[C@H](CC(N)=O)NC(=O)c1ccc2ccccc2n1` 1

Continue with CC(C)(C)OC(=O)N1CC2CCCCC2CN1CC(O)[C@H](Cc1ccccc1)NC(=O)[C@H](CCC(N)=O)NC(=O)c1ccc2ccccc2n1 (stereo partly drawn) 1

Continue with `CC(C)(C)OC(=O)NN(C[C@H](O)[C@H](Cc1ccccc1)NC(=O)[C@H](CC(N)=O)NC(=O)c1ccc2ccccc2n1)C1CCCCC1` 0.1

Continue with `CC(C)[C@H](NC(=O)c1ccc2ccccc2n1)C(=O)N[C@@H](Cc1ccccc1)[C@H](O)CN(NC(=O)OC(C)(C)C)C(C)C` 5

Continue with CC(C)(C)OC(=O)N1Cc2ccccc2CN1CC(O)[C@H](Cc1ccccc1)NC(=O)[C@H](CC(N)=O)NC(=O)c1ccc2ccccc2n1 (stereo partly drawn) 1

Continue with CC(C)[C@H](NC(=O)OCc1ccccn1)C(=O)N[C@@H](Cc1ccccc1)C(O)CN1CC2CCCCC2CN1C(=O)OC(C)(C)C (stereo partly drawn) 1

Continue with `CC(C)N(C[C@H](O)[C@H](Cc1ccccc1)NC(=O)[C@H](CC(N)=O)NC(=O)c1ccc2ccccc2n1)NC(=O)C(C)(C)C` 1

Continue with `CC(C)N(C[C@@H](O)[C@H](Cc1ccccc1)NC(=O)[C@H](CC(N)=O)NC(=O)c1ccc2ccccc2n1)NC(=O)c1ccccc1NC(=O)OCc1ccccn1` 0.1
